Record: compiled pKi on UniProt P16232 from multiple reports.
Sequence (P16232 whole entry): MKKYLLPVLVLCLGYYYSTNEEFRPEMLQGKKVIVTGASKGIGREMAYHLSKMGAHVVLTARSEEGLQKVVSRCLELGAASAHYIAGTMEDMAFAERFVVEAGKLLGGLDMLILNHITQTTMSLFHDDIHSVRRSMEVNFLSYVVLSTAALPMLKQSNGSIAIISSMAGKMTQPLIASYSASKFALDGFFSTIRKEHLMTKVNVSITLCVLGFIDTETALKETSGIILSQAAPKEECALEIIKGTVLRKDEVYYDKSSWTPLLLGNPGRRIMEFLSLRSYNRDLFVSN
pKi: −log10 of the molar value.
test_readout: pKi

compound	test_readout	observed_result
CN(C)CCNC(=O)[C@H]1CC[C@@H](N(C(=O)c2cc(Cl)c(N)c(Cl)c2)C2CC2)CC1	pKi	7.77
CCOC(=O)CN1C[C@@H](C)N(C(=O)c2cc(Cl)c(N)c(Cl)c2)[C@@H](C)C1	pKi	7.85
CN(C(=O)c1cc(Cl)c(N)c(Cl)c1)C12CC3CC(CC(C3)C1)C2	pKi	8.22
CC(C(=O)N[C@H]1C2CC3CC1C[C@](O)(C3)C2)N1CCN(c2ccc(C(F)(F)F)cn2)CC1 (mixture of isomers)	pKi	8.40
Nc1c(Cl)cc(C(=O)N(C2CCCCC2)C2CC2)cc1Cl	pKi	8.28
Nc1c(Cl)cc(C(=O)N2CC3CC2CN(Cc2ccccc2)C3)cc1Cl (centres undefined)	pKi	5.57
Nc1c(Cl)cc(C(=O)N2C3CC4CC(C3)CC2C4)cc1Cl	pKi	8.40
Nc1c(Cl)cc(C(=O)N(C2CC2)[C@H]2CC[C@@H](C(=O)NCc3ccccc3)CC2)cc1Cl	pKi	7.41
CC1(C)CC2CC(C)(CN2C(=O)c2cc(Cl)c(N)c(Cl)c2)C1 (centres undefined)	pKi	8.10
COC(=O)CN(C)C(=O)[C@H]1CC[C@@H](N(C(=O)c2cc(Cl)c(N)c(Cl)c2)C2CC2)CC1	pKi	7.85
Nc1c(Cl)cc(C(=O)N(C2CC2)[C@H]2CC[C@@H](C(=O)N3CCCC3)CC2)cc1Cl	pKi	8.28
Nc1c(Cl)cc(C(=O)N(C2CC2)[C@H]2CC[C@@H](C(=O)NCC(=O)O)CC2)cc1Cl	pKi	7.70
CCS(=O)(=O)CCC12CCC(c3nnc(-c4ccccc4C(F)(F)F)n3C)(CC1)CC2	pKi	8.41
Cn1c(-c2ccccc2C(F)(F)F)nnc1C12CCC(c3noc(C(C)(F)F)n3)(CC1)CC2	pKi	8.15
